System: Hymenolepis nana
PROTOCOL TEXT: Test for anthelminthics, cestodes (Hymenolepis nana)
Assay type: in vivo
TEST CONDITIONS: number of subjects 10
Here, each record is paired with measured Number of subjects from which the parasite has been eradicated (D) data.
QUANTITY KIND: Number of subjects from which the parasite has been eradicated (D)

1) O=C(COc1c(F)c(F)c(F)c(F)c1F)Nc1ncc([N+](=O)[O-])s1 | 2
2) O=C(COc1cc(Cl)ccc1Cl)Nc1ncc([N+](=O)[O-])s1 | 2
3) Cc1cc(OCC(=O)Nc2ncc([N+](=O)[O-])s2)ccc1Cl | 0
4) O=C(COc1ccc(Br)cc1)Nc1ncc([N+](=O)[O-])s1 | 1
5) Cc1cc(Cl)c(OCC(=O)Nc2ncc([N+](=O)[O-])s2)cc1C | 0
